SYSTEM_UNDER_TEST: Gastrin/cholecystokinin type B receptor (Cavia porcellus)
TEST_NAME: Inhibition of specific binding of [125I]BH-CCK-8 in guinea pig cortex
Where a SMILES comes first, the peptide text is derived from it. The star is where a group is joined. Propanoyl(3-(4-F-phenyl)) = O=C(CCc1ccc(F)cc1)*; Hydrocinnamoyl(4-Me) = Cc1ccc(CCC(=O)*)cc1; X22 = O=C(CCc1cccc(OS(=O)(=O)O)c1)*; Hydrocinnamoyl = O=C(CCc1ccccc1)*; X2 = O=C(c1cc2cc(Cl)ccc2[nH]1)*; X31 = COc1ccc(/C=C\C(=O)*)cc1OC; X7 = CN(C)c1ccc(/C=C\C(=O)*)cc1; X27 = O=C(Cc1ccc(O)cc1)*; X5 = O=C(CCc1cccc(O)c1)*; Boc = CC(C)(C)OC(=O)*
// log10 IC50 lookup, one value per entry
RECORDED_ENDPOINT: log10 IC50 (log10 of the value in µM)

COMPOUND: CC(C)(C)OC(=O)N[C@@H](Cc1c[nH]c2ccccc12)C(=O)N[C@@H](CCCCNC(=O)CCc1ccc(F)cc1)C(=O)N[C@@H](CC(=O)O)C(=O)N[C@@H](Cc1ccccc1)C(N)=O (Boc-WK(Propanoyl(3-(4-F-phenyl)))DF-NH2)
SYSTEM_UNDER_TEST: Gastrin/cholecystokinin type B receptor (Cavia porcellus)
log10 IC50: 1.00
--
COMPOUND: CC(C)(C)OC(=O)N[C@@H](Cc1c[nH]c2ccccc12)C(=O)N[C@@H](CCCCNC(=O)c1cc2cc(Cl)ccc2[nH]1)C(=O)N[C@@H](CC(=O)O)C(=O)N[C@@H](Cc1ccccc1)C(N)=O (Boc-WK(X2)DF-NH2)
SYSTEM_UNDER_TEST: Gastrin/cholecystokinin type B receptor (Cavia porcellus)
log10 IC50: 0.72
--
COMPOUND: CC(C)(C)OC(=O)N[C@@H](Cc1c[nH]c2ccccc12)C(=O)N[C@@H](CCCCNC(=O)CCc1cccc(O)c1)C(=O)N[C@@H](CC(=O)O)C(=O)N[C@@H](Cc1ccccc1)C(N)=O (Boc-WK(X5)DF-NH2)
SYSTEM_UNDER_TEST: Gastrin/cholecystokinin type B receptor (Cavia porcellus)
log10 IC50: 0.48
--
COMPOUND: CC(C)(C)OC(=O)N[C@@H](Cc1c[nH]c2ccccc12)C(=O)N[C@@H](CCCCNC(=O)CCc1ccccc1)C(=O)N[C@@H](CC(=O)O)C(=O)N[C@@H](Cc1ccccc1)C(N)=O (Boc-WK(Hydrocinnamoyl)DF-NH2)
SYSTEM_UNDER_TEST: Gastrin/cholecystokinin type B receptor (Cavia porcellus)
log10 IC50: 0.77
--
COMPOUND: CN(C)c1ccc(/C=C\C(=O)NCCCC[C@H](NC(=O)[C@H](Cc2c[nH]c3ccccc23)NC(=O)OC(C)(C)C)C(=O)N[C@@H](CC(=O)O)C(=O)N[C@@H](Cc2ccccc2)C(N)=O)cc1 (Boc-WK(X7)DF-NH2)
SYSTEM_UNDER_TEST: Gastrin/cholecystokinin type B receptor (Cavia porcellus)
log10 IC50: 0.32
--
COMPOUND: Cc1ccc(CCC(=O)NCCCC[C@H](NC(=O)[C@H](Cc2c[nH]c3ccccc23)NC(=O)OC(C)(C)C)C(=O)N[C@@H](CC(=O)O)C(=O)N[C@@H](Cc2ccccc2)C(N)=O)cc1 (Boc-WK(Hydrocinnamoyl(4-Me))DF-NH2)
SYSTEM_UNDER_TEST: Gastrin/cholecystokinin type B receptor (Cavia porcellus)
log10 IC50: 1.00
--
COMPOUND: COc1ccc(/C=C\C(=O)NCCCC[C@H](NC(=O)[C@H](Cc2c[nH]c3ccccc23)NC(=O)OC(C)(C)C)C(=O)N[C@@H](CC(=O)O)C(=O)N[C@@H](Cc2ccccc2)C(N)=O)cc1OC (Boc-WK(X31)DF-NH2)
SYSTEM_UNDER_TEST: Gastrin/cholecystokinin type B receptor (Cavia porcellus)
log10 IC50: 0.60
--
COMPOUND: CC(C)(C)OC(=O)N[C@@H](Cc1c[nH]c2ccccc12)C(=O)N[C@@H](CCCCNC(=O)Cc1ccc(O)cc1)C(=O)N[C@@H](CC(=O)O)C(=O)N[C@@H](Cc1ccccc1)C(N)=O (Boc-WK(X27)DF-NH2)
SYSTEM_UNDER_TEST: Gastrin/cholecystokinin type B receptor (Cavia porcellus)
log10 IC50: -0.32
--
COMPOUND: CC(C)(C)OC(=O)N[C@@H](Cc1c[nH]c2ccccc12)C(=O)N[C@@H](CCCCNC(=O)CCc1cccc(OS(=O)(=O)O)c1)C(=O)N[C@@H](CC(=O)O)C(=O)N[C@@H](Cc1ccccc1)C(N)=O (Boc-WK(X22)DF-NH2)
SYSTEM_UNDER_TEST: Gastrin/cholecystokinin type B receptor (Cavia porcellus)
log10 IC50: 1.00
